# Run description: Pharmacokinetics in dogs
# Assay type: in vivo
# Run conditions: male, Beagle, dog, plasma, iv, i.v. (1 mg/kg)
The reader will find reported clearance values listed item by item below.
Observable: clearance (mL/min/kg)

[[record]]
molecule = "O=C(NCc1ccccc1)C(=O)[C@H](C[C@@H]1CCCNC1=O)NC(=O)[C@H](Cc1ccc(F)cc1)NC(=O)c1cc2ccccc2o1 [14a]"
experimental_result = 24.4

[[record]]
molecule = "O=C(NCc1ccccc1)C(=O)[C@H](C[C@@H]1CCCNC1=O)NC(=O)[C@H](CC1CCCCC1)NC(=O)c1cc2ccccc2o1 [14b]"
experimental_result = 31.9

